# reported Percent Effect; entries follow
biological target: Aspartate--tRNA(Asp/Asn) ligase (Mycobacterium tuberculosis (strain ATCC 25618 / H37Rv)) (UniProt P9WFW3); assay: Assay for Asp RNA synthetase-1 from Mycobacterium tuberculosis; format: functional; design: scale not given: in the data most compounds retested in dose-response had high values; details: 30 µM
Sequence (P9WFW3 whole entry): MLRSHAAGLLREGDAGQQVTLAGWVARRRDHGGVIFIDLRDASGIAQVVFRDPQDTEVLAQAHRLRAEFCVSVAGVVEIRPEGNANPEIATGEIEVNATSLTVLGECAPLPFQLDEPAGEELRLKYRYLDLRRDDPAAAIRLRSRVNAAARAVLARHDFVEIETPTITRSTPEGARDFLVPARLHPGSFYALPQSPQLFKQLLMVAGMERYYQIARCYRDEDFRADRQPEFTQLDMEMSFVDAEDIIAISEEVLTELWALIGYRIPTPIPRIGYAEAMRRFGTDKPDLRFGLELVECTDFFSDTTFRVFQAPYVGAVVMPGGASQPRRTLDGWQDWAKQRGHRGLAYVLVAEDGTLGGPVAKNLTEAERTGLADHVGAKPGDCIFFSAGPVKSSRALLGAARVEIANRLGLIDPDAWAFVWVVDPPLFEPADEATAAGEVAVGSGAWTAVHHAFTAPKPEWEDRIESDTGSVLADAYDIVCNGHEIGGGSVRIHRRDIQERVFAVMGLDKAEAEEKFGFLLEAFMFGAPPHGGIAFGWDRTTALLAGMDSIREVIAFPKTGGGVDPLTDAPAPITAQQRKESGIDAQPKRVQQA
Return type: number; implicit unit %.

- Cc1nc[nH]c1CN1C[C@@H]2CC[C@H](C1)N(C(=O)CCc1cnn(C)c1)C2: 0.752
- COc1ccccc1OC1CCN(Cc2cnc(N(C)C)nc2)CC1: -2.72
- CC1CN(c2ccc(CNC(=O)c3ccn(C)c(=O)c3)cn2)CCO1 (stereo unspecified): -6.51
- CCc1cc(NCC(O)CN2CCCCC2)n2ncnc2n1 (stereo unspecified): 8.06
- CC(C(=O)NCc1ccnc(N2CCCC2)c1)n1cncn1 (stereo unspecified): -2.83

Notebook: Cc1cc(C[S+]([O-])CC(=O)Nc2c(C)cccc2C)no1 (stereo unspecified) , Percent Effect read as -6.04

Notebook: COC(=O)c1ccc(N2CCN(CCC#N)C(C)C2)cc1 (stereo unspecified) , Percent Effect read as 2.13

Notebook: Cc1cc(NC(=O)CN2CCCC2c2noc(C(C)C)n2)n(C)n1 (stereo unspecified) , Percent Effect read as -2.48

Notebook: Cc1nccn1C1CCCN(C(=O)c2ccc(N3CCCC3)nn2)C1 (stereo unspecified) , Percent Effect read as 2.5

Notebook: CCc1ccc(C(=O)N2CCC(c3nncn3CC)CC2)cc1 , Percent Effect read as -2.16

Notebook: CN(Cc1ccco1)C(=O)CN1CCCCC1Cn1cccn1 (stereo unspecified) , Percent Effect read as -0.346
